// data source = ChEMBL document CHEMBL4325871

target-of-assay: Mitogen-activated protein kinase kinase kinase 20 (Homo sapiens, UniProt Q9NYL2)
Sequence (Q9NYL2 whole entry): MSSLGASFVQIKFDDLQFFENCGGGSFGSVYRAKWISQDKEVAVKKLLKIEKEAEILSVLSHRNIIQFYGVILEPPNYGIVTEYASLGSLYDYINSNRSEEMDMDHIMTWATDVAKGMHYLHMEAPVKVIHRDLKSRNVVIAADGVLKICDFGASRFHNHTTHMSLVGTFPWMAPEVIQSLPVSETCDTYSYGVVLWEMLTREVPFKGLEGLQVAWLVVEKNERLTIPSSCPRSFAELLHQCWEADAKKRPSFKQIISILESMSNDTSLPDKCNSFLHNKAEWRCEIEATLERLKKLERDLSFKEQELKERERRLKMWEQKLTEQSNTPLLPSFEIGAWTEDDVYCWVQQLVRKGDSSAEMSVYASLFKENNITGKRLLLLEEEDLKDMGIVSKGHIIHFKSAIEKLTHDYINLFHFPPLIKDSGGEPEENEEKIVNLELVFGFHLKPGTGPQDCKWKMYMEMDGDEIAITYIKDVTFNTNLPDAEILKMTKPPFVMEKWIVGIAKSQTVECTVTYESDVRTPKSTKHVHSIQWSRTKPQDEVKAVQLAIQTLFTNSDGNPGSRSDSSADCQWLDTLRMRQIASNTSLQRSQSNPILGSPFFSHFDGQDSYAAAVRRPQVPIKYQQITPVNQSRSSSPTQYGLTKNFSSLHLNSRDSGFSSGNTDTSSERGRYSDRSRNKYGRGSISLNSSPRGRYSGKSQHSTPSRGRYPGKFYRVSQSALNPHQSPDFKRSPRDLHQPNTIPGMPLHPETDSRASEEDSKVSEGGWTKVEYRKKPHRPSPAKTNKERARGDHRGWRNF
property-name: IC50 (nM)

> print(dat)
                                   compound                           target.of.assay  measured.result
1  O=C1Nc2ccc(I)cc2C1=Cc1cc(Br)c(O)c(Br)c1 [GW305074X]  Mitogen-activated protein kinase kinase kinase 20 (Homo sapiens, UniProt Q9NYL2)             1890

###

target-of-assay: Receptor-interacting serine/threonine-protein kinase 3 (Homo sapiens, UniProt Q9Y572)
Sequence (Q9Y572 whole entry): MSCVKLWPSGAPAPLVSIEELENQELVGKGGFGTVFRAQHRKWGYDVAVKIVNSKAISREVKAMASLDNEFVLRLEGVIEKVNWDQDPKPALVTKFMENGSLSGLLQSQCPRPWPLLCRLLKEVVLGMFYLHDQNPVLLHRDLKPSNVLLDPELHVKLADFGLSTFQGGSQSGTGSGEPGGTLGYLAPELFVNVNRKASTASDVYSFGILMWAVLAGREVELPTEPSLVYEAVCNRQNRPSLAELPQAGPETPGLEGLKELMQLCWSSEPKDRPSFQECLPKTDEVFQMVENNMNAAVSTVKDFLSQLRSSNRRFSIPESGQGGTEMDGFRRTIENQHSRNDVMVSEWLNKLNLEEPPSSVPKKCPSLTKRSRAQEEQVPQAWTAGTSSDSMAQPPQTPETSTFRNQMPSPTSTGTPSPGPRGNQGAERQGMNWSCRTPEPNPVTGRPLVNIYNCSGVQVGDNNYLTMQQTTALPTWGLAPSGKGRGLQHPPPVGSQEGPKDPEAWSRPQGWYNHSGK
property-name: IC50 (µM)

> print(dat)
                                   molecule  property.name  measured.result
1  O=C1Nc2ccc(I)cc2C1=Cc1cc(Br)c(O)c(Br)c1 [GW305074X]           IC50              5.4

###

target-of-assay: Casein kinase II subunit alpha (Homo sapiens)
Sequence (P68400 whole entry): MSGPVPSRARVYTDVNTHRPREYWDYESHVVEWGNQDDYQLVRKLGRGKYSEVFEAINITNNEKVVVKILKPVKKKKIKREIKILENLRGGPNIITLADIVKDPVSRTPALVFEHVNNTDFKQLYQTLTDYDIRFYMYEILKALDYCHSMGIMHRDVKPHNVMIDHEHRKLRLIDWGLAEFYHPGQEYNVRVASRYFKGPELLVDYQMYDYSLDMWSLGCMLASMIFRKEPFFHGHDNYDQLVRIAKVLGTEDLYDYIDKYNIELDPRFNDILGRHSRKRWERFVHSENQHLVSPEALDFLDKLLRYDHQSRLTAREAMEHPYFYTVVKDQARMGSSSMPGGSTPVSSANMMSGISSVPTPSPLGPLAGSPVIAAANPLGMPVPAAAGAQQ
property-name: IC50 (nM)

> print(dat)
                                   compound  property.name  measured.result
1  O=C1Nc2ccc(I)cc2C1=Cc1cc(Br)c(O)c(Br)c1 [GW305074X]           IC50              279

###

target-of-assay: Serine/threonine-protein kinase Nek7 (Homo sapiens)
Sequence (Q8TDX7 whole entry): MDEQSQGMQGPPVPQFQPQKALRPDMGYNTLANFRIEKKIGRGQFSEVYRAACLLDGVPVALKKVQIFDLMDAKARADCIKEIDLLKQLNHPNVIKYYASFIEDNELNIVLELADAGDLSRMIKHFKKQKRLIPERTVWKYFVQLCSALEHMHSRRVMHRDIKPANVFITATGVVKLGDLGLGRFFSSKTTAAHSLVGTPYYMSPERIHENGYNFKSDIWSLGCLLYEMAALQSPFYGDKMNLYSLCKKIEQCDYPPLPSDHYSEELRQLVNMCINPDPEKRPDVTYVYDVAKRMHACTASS
property-name: IC50

> print(dat)
                   chemical.structure  measured.result
1  O=C1Nc2ccc3ncsc3c2/C1=C/c1c[nH]cn1          7.28 µM

###

target-of-assay: Mitogen-activated protein kinase kinase kinase kinase 1 (Homo sapiens)
Sequence (Q92918 whole entry): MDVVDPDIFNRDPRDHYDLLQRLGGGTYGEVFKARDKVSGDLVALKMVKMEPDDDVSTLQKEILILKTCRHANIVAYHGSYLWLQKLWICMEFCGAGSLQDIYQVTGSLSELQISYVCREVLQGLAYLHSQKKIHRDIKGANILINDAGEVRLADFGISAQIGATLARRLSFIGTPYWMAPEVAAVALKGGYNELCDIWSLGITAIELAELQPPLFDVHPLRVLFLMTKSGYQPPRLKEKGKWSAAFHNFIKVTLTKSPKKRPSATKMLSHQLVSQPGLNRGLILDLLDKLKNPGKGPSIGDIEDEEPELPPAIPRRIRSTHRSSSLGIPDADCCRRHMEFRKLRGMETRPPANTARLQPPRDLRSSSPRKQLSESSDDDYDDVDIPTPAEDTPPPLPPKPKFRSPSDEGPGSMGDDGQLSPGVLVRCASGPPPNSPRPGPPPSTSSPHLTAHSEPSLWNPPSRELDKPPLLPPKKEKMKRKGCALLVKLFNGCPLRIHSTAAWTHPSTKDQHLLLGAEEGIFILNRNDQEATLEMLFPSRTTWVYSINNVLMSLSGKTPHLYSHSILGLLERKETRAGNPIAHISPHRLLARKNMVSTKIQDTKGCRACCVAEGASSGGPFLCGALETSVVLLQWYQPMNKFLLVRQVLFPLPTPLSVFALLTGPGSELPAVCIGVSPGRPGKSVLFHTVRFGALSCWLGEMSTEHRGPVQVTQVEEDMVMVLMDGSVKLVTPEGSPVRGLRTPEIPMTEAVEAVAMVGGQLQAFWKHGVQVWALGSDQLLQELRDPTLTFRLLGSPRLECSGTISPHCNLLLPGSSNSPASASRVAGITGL
pIC50: −log10 of the molar value.
property-name: pIC50

> print(dat)
                                   molecule  property.name  measured.result
1  Cn1cc(C2=C(c3cn(CCCSC(=N)N)c4ccccc34)C(=O)NC2=O)c2ccccc21 [BISINDOLYLMALEIMIDE IX]          pIC50             7.28

###

target-of-assay: Tau-tubulin kinase 1 (Homo sapiens, UniProt Q5TCY1)
Sequence (Q5TCY1 whole entry): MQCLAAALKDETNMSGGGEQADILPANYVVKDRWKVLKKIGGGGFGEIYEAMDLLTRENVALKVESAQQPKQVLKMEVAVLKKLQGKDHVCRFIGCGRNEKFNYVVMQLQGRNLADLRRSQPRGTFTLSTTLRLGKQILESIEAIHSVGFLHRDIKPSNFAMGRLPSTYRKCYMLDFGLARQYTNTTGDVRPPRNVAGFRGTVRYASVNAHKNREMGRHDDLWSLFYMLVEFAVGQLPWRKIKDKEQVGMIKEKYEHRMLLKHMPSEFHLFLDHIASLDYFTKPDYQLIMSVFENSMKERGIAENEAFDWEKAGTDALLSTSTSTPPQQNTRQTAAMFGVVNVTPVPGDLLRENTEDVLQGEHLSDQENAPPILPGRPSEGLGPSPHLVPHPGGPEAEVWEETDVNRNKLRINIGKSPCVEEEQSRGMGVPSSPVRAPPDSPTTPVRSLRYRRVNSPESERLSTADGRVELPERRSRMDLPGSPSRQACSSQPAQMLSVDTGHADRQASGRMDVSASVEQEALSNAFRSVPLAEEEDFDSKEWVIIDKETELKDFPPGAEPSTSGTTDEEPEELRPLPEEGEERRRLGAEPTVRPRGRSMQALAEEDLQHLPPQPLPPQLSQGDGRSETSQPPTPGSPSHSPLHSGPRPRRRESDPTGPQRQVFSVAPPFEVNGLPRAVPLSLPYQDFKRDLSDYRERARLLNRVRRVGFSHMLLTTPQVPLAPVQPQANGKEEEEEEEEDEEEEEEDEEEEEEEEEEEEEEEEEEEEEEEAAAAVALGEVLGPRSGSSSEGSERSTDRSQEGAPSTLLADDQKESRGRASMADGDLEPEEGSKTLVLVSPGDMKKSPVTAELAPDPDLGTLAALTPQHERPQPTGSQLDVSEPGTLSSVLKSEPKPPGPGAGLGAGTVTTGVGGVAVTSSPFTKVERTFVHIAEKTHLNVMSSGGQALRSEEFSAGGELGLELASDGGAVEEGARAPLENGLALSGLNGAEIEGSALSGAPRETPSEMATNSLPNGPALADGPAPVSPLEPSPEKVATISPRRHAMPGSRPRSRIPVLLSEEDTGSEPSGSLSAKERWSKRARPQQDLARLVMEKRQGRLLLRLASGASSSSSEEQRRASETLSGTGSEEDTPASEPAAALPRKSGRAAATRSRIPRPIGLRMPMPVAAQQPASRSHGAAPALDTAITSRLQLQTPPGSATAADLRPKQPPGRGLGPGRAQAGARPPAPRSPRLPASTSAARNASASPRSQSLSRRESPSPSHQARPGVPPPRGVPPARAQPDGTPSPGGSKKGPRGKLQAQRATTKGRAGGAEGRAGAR
property-name: IC50 (µM)

> print(dat)
                         chemical.structure                           target.of.assay  measured.result
1  Oc1ccc(-c2nc(-c3ccncc3)c(-c3ccc(F)cc3)[nH]2)cc1  Tau-tubulin kinase 1 (Homo sapiens, UniProt Q5TCY1)             47.2

###

target-of-assay: Serine/threonine-protein kinase Nek6 (Homo sapiens, UniProt Q9HC98)
Sequence (Q9HC98 whole entry): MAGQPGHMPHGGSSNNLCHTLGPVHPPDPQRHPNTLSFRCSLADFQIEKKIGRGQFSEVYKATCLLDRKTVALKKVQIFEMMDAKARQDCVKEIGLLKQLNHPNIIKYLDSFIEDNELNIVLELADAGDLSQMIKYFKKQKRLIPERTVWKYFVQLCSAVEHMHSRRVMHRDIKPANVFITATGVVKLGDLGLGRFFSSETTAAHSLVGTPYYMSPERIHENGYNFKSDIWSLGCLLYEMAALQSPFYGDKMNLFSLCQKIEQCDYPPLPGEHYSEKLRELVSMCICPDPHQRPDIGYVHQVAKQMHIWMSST
property-name: IC50

> print(dat)
                   chemical.structure                           target.of.assay  measured.result
1  O=C1Nc2ccc3ncsc3c2/C1=C/c1c[nH]cn1  Serine/threonine-protein kinase Nek6 (Homo sapiens, UniProt Q9HC98)          59.8 µM

###

target-of-assay: Serine/threonine-protein kinase VRK2 (Homo sapiens, UniProt Q86Y07)
Sequence (Q86Y07 whole entry): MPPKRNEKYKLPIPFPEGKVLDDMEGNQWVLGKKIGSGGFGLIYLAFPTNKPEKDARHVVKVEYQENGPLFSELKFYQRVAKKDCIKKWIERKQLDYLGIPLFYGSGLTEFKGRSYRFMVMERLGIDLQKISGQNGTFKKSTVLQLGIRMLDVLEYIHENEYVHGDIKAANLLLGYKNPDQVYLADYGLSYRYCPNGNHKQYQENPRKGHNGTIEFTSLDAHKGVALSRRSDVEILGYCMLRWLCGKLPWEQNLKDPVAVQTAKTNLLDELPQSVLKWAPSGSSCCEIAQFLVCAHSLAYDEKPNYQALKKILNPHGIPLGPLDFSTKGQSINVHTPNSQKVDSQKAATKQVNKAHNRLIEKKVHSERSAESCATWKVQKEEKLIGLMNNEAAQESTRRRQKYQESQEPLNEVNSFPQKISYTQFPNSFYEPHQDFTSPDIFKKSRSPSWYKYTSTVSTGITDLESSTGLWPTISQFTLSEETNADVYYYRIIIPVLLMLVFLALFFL
property-name: IC50 (µM)

> print(dat)
                                   compound  property.name  measured.result
1  Cn1cc(C2=C(c3cn(CCCSC(=N)N)c4ccccc34)C(=O)NC2=O)c2ccccc21 [BISINDOLYLMALEIMIDE IX]           IC50             16.4

###

target-of-assay: Serine/threonine-protein kinase A-Raf (Homo sapiens)
Sequence (P10398 whole entry): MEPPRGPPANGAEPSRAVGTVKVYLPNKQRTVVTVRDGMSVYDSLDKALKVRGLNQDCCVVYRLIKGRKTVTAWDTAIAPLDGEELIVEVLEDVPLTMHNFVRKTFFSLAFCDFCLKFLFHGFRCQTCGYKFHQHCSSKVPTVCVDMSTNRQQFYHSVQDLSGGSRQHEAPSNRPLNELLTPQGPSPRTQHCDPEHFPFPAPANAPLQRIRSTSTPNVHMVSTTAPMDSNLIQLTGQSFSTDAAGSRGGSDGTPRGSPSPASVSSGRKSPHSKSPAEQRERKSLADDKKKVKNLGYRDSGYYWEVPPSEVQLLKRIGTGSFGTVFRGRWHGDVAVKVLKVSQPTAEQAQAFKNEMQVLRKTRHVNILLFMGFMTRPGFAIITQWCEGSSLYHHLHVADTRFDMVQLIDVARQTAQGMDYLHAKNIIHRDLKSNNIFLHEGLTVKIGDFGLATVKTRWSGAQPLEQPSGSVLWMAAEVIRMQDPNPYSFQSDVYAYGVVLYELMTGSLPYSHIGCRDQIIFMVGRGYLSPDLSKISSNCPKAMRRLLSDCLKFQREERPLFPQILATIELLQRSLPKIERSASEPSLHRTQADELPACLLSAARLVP
property-name: IC50 (nM)

> print(dat)
                                   molecule                           target.of.assay  quantity.unit  measured.result
1  O=C1Nc2ccc(I)cc2C1=Cc1cc(Br)c(O)c(Br)c1 [GW305074X]  Serine/threonine-protein kinase A-Raf (Homo sapiens)             nM             14.6
